Biological target: PRMT5/MEP50 (Homo sapiens (Human), UniProt O14744)
Sequence (O14744 other isoform, or with tags, fused parts or gaps): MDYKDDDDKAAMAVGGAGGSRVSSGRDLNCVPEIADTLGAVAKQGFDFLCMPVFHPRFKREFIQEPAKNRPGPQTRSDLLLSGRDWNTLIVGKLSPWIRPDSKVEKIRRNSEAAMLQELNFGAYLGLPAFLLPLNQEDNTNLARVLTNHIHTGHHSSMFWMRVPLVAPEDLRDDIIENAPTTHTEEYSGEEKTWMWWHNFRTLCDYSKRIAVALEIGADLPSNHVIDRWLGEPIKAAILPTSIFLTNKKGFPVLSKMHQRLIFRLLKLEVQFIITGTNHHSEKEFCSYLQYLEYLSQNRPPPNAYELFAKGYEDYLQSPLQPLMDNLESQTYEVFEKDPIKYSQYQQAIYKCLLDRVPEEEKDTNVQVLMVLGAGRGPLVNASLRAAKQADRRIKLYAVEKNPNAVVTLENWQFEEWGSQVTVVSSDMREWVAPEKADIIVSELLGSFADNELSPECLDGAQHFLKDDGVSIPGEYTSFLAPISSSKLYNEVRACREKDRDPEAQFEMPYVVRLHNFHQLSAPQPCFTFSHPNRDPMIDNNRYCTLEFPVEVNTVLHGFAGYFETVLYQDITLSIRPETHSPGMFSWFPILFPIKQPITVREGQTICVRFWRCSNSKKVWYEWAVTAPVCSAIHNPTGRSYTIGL
Sequence (Q9BQA1 other isoform, or with tags, fused parts or gaps partner): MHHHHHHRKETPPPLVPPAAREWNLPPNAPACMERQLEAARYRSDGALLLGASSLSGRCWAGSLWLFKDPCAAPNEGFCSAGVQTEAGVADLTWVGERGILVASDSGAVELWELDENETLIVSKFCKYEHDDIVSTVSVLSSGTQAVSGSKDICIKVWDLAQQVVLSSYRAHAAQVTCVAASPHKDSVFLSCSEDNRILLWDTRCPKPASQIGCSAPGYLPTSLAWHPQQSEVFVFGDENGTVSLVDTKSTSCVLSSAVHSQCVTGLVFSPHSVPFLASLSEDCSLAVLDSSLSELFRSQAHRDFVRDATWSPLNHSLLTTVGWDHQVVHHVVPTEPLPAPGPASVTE
Test: PRMT5 Biochemical Assay (PRMT5/MEP50 enzyme assay on peptide substrate, 3H-SAM Flashplate)
Quantity: IC50

Compound: O=C(NC[C@H](O)CN1CCc2ccccc2C1)c1ccc(OCCCN2CCOCC2)cc1
IC50: < 100 nM
//
Compound: CC1(C)CC(Nc2cccc(C(=O)NCC(O)CN3CCc4ccccc4C3)c2)CCO1 (stereo not shown)
IC50: 101 to 1000 nM
//
Compound: O=C(NC[C@H](O)CN1CCc2ccccc2C1)c1ccnc(OC2CCC2)c1
IC50: < 100 nM

Count: 3. Required value per item: IC50.
1. O=C(NC[C@H](O)CN1CCc2ccccc2C1)c1cc(N[C@@H]2CCOC2)ncn1
2. CN(C[C@H](O)CN1CCc2ccccc2C1)C(=O)c1cc(NC2COC2)ncn1
3. O=C(NC[C@H](O)CN1CCc2ccccc2C1)c1ccc(OCCCN2CCC2)cc1

["< 100 nM", "101 to 1000 nM", "< 100 nM"]

Count: 5. Required value per item: IC50.
1. O=C(NC[C@H](O)CN1CCc2ccccc2C1)c1cc(NC2CCC2)nc(N2CCNCC2)c1
2. O=C(NCC(O)CN1CCc2ccccc2C1)c1cccnc1 (stereo not shown)
3. CC(Nc1cccc(C(=O)NCC(O)CN2CCc3ccccc3C2)c1)C1CCOCC1 (stereo not shown)
4. O=C(NCC(O)CN1CCc2ccccc2C1)c1ccccc1-c1ccccn1 (stereo not shown)
5. CC(C)NCCCOc1ccc(C(=O)NC[C@H](O)CN2CCc3ccccc3C2)cc1

1. < 100 nM
2. 101 to 1000 nM
3. 101 to 1000 nM
4. 101 to 1000 nM
5. < 100 nM

Count: 3. Required value per item: IC50.
1. Cc1cnc(OC2CCOCC2)cc1C(=O)NC[C@H](O)CN1CCc2ccccc2C1
2. CN(CCNCC(F)(F)F)c1cc(C(=O)NC[C@H](O)CN2CCc3ccccc3C2)ccn1
3. O=C(NC[C@H](O)CN1CCc2ccccc2C1)c1ccc2cc(OCCNCCO)ccc2c1

1. < 100 nM
2. < 100 nM
3. < 100 nM
